Each record here notes measured combination Emax.
tested on: HDLM-2 (Hodgkin's Lymphoma); assay: combination Emax (second highest fraction inhibited in the dose matrix, 72 h); higher = more inhibition; extreme values may be limits of the assay
Please give only the number in your answer, with no unit.

Solved cases below.
CN(CCO)CC[C@H](CSc1ccccc1)Nc1ccc(S(=O)(=O)NC(=O)c2ccc(N3CCC([C@@H](O)c4ccccc4-c4ccc(Cl)cc4)CC3)cc2)cc1S(=O)(=O)C(F)(F)F [AZD4320] + CS(=O)(=O)CCNCc1ccc(-c2ccc3ncnc(Nc4ccc(OCc5cccc(F)c5)c(Cl)c4)c3c2)o1 [Lapatinib] (first compound max 1 µM, 7x7, partner max 10 µM) : 0.985
C=CCn1c(=O)c2cnc(Nc3ccc(N4CCN(C)CC4)cc3)nc2n1-c1cccc(C(C)(C)O)n1 [AZD1775] + C[C@@H]1COCCN1C2=NC(=NC(=C2)C3(CC3)[S@](=N)(=O)C)C4=C5C=CNC5=NC=C4 [AZD6738] (first compound max 1 µM, partner max 10 µM) : 0.772
Cc1cc2ncnn2cc1Nc1ncc2c(n1)n(C1CCOCC1)c(=O)n2C [AZD7648] + CN(C)CCCOc1ccc(-c2ccc3ncc4c(c3c2)n(C2CCOCC2)c(=O)n4C)cn1 [AZD0156] (first compound max 10 µM, 7x7, partner max 1 µM) : 0.368

// query I have this compound here, CS(=O)(=O)CCNCc1ccc(-c2ccc3ncnc(Nc4ccc(OCc5cccc(F)c5)c(Cl)c4)c3c2)o1 [Lapatinib] + NC1(c2ccc(-c3nc4ccn5c(=O)[nH]nc5c4cc3-c3ccccc3)cc2)CCC1 [MK-2206] (first compound max 10 µM, 7x7, partner max 10 µM) , and I need its recorded combination Emax.
// result 0.625

// query Another: C=CCn1c(=O)c2cnc(Nc3ccc(N4CCN(C)CC4)cc3)nc2n1-c1cccc(C(C)(C)O)n1 [AZD1775] + CCc1c2c(nc3ccc(O)cc13)-c1cc3c(c(=O)n1C2)COC(=O)[C@]3(O)CC [SN-38] (first compound max 1 µM, partner max 0.3 µM)
// result 0.778

// query Another: CC1(C)CCC(CN2CCN(c3ccc(C(=O)NS(=O)(=O)c4ccc(NCC5CCOCC5)c([N+](=O)[O-])c4)c(Oc4cnc5[nH]ccc5c4)c3)CC2)=C(c2ccc(Cl)cc2)C1 [Venetoclax] + Cn1cnc2c(F)c(Nc3ccc(Br)cc3Cl)c(C(=O)NOCCO)cc21 [Selumetinib] (first compound max 1 µM, 7x7, partner max 3 µM)
// result 0.296
